// data source = patent US20240408169A1

Tested on: NCI-H1048 cells
assay: MTT proliferation assay, NCI-H1048;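 further: Dose-response in 96-well plates over 8 or 10 concentration points, with exposure spanning 3-4 cell doublings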
Assay type: cell-based
test_parameters: 5 days compound exposure, 1:3 serial dilution starting at 10 μM
*1 amine or outer side, *2 acyl side, *3 side chain or, on linkers, in order; H or OH if unused. Where a SMILES comes first, the peptide text is derived from it. Bridges are numbered along the chain shown (N, C = ends). [ ]: non-standard residue; d: D form. The star is where a group is joined. X128 = CC(C)C(=O)N1C2C=C(c3ccc(F)cc3C[C@@H](C(=O)[*:2])N(C)[*:1])CC1COC2; X178 = CN([C@@H](Cc1cc(F)ccc1-c1cnn(C2CCOC2)c1)C(=O)[*:2])[*:1]; NMehhhLys(Me) = CN([C@@H](CCCCCCCN(C)[*:3])C(=O)[*:2])[*:1]; cBuCO(3,3-F2-1-CF3) = O=C(C1(C(F)(F)F)CC(F)(F)C1)*; Pro(trans-4-F) = O=C(O)[C@@H]1C[C@@H](F)CN1; Gly(cPr) = N[C@H](C(=O)O)C1CC1
result_type: GI50 (nM)
Response body: numeric value in nM, unit text excluded.

Req: I'd like to know its GI50. The molecule in question is CC(C)C[C@@H]1NC(=O)[C@@H](N(C)C(=O)[C@@H](NC(=O)[C@@H]2C[C@@H](F)CN2C(=O)C2(C(F)(F)F)CC(F)(F)C2)C2CC2)CCCCCCCN(C)C(=O)[C@H](Cc2cc(F)ccc2-c2cnn(C3CCOC3)c2)N(C)C1=O (stereo partly drawn) [Example 94] ({cBuCO(3,3-F2-1-CF3)}-[Pro(trans-4-F)][Gly(cPr)][NMehhhLys(Me)]L[X178]; lactam 3-C)
Resp: 10

Req: I'd like to know its GI50. The molecule in question is CC(C)C[C@@H]1NC(=O)[C@@H](N(C)C(=O)[C@@H](NC(=O)[C@@H]2C[C@@H](F)CN2C(=O)C2(C(F)(F)F)CC(F)(F)C2)C2CC2)CCCCCCCN(C)C(=O)[C@H](Cc2cc(F)ccc2C2=CC3COCC(C2)N3C(=O)C(C)C)N(C)C1=O (stereo partly drawn) [Example 151] ({cBuCO(3,3-F2-1-CF3)}-[Pro(trans-4-F)][Gly(cPr)][NMehhhLys(Me)]L[X128]; lactam 3-C)
Resp: 10
